Origin of the recorded values: paper PMC6581720

- TARGET ENTITY: SpoIVB (sporulation factor IV B protease) (Bacillus subtilis, UniProt P17896, S378A)
- Construct: truncated SpoIVB (residues Thr75-Ser426), N-terminal 6 × His and mMBP fusion tags
- Sequence (P17896 75-426 S378A): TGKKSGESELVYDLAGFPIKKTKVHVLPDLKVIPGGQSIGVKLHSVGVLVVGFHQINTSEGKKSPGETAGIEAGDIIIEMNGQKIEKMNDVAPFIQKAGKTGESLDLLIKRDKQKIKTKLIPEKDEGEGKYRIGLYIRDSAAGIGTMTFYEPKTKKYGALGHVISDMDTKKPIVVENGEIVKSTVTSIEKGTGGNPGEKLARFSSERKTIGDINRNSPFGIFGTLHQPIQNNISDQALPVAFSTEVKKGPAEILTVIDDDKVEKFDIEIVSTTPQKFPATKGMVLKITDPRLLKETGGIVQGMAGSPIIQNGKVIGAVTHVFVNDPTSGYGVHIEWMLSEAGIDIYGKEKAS
- METHOD SUMMARY: microscale thermophoresis (MST), RED-NHS labelled protein
ASSAY READOUT: pKd
Recall that pKd is obtained by taking minus log10 of the concentration measured in molar.

Quick one: pKd of `N=C(N)c1ccccc1` ?
3.18
